Test system: TGF-β mediated by TSP-1
Assay: Cell-based assay of inhibition of TGF-β mediated by TSP-1
Design: species or system human
Conditions: Homo sapiens; At 10 nM; read-out: Inhibition of TGF-β mediated by TSP-1 cell-based assay at [Inhibitor]
Property: inhibition at 0.01 µM; scope: individual compounds
QUANTITY_KIND: inhibition at 0.01 µM (%)

INSERT INTO assay_data (compound, value_observed) VALUES
  ('NC(=O)c1ccc(C[C@@H]2NC(=O)C3(CCCC3)NC2=O)cc1', 8),
  ('Nc1ccc(C[C@@H]2NC(=O)CNC2=O)cc1', 13),
  ('NCCCC[C@@H]1NC(=O)CNC1=O [Compound 1, (S)-3-(4-aminobutyl)piperazine-2,5-dione]', 38),
  ('CC1(C)NC(=O)[C@H](Cc2ccc(N)cc2)NC1=O', 80),
  ('Nc1ccc(C[C@@H]2NC(=O)C3(CCCCC3)NC2=O)cc1', 49),
  ('Nc1ccc(C[C@@H]2NC(=O)C3(CCC3)NC2=O)cc1', 62),
  ('Nc1ccc(C[C@@H]2NC(=O)C3(CCCC3)NC2=O)cc1', 40),
  ('NCCC[C@@H]1NC(=O)C2(CCCC2)NC1=O', 54),
  ('CC1(C)NC(=O)[C@H](Cc2ccc(C(N)=O)cc2)NC1=O', 25),
  ('CC1(C)NC(=O)[C@H](Cc2cccc(CN)c2)NC1=O', 75),
  ('CC1(C)NC(=O)[C@H](CCCCN)NC1=O', 38),
  ('NC(=O)c1ccc(C[C@@H]2NC(=O)CNC2=O)cc1', 40),
  ('NCCCC[C@@H]1NC(=O)C2(CCCC2)NC1=O', 72);

Provenance of the data: patent US11505531B2
